Values were extracted from patent US8921426B2.

Provide the reported log10(CMC) of each item.
- ASSAY INFO: Critical micelle concentration (CMC) by intensity of scattered light
- Assay type: physicochemical
- STUDY CONDITIONS: cationic bis-urea compounds; stock diluted using DI water
All values: base-10 log of CMC in mg/L.

Reported log10(CMC) for `NCc1ccc(CNC(=O)Nc2ccc(CNC(=O)c3ccc(C(=O)NCc4ccc(NC(=O)NCc5ccc(CN)cc5)cc4)cc3)cc2)cc1` : what is it?
1.08

So what's the measured log10(CMC) for this one? `NCCCCNC(=O)Nc1ccc(CNC(=O)c2ccc(C(=O)NCc3ccc(NC(=O)NCCCCN)cc3)cc2)cc1`
1.30

Bench note: what log10(CMC) did `NCCCCCCNC(=O)Nc1ccc(CNC(=O)c2ccc(C(=O)NCc3ccc(NC(=O)NCCCCCCN)cc3)cc2)cc1` show?
1.18

Data request, read-out log10(CMC), for `NCCNC(=O)Nc1ccc(CNC(=O)c2ccc(C(=O)NCc3ccc(NC(=O)NCCN)cc3)cc2)cc1`
2.00

Any idea what log10(CMC) was measured for `C[N+](C)(C)CCCNC(=O)Nc1ccc(NC(=O)c2ccc(C(=O)Nc3ccc(NC(=O)NCCC[N+](C)(C)C)cc3)cc2)cc1.[I-].[I-]` ?
2.04

Which log10(CMC) is listed for `C[N+](C)(C)CCCNC(=O)Nc1ccc(CNC(=O)c2ccc(C(=O)NCc3ccc(NC(=O)NCCC[N+](C)(C)C)cc3)cc2)cc1.[I-].[I-]` ?
2.23

###

Give Zeta Potential for every item shown.
- ASSAY INFO: Zeta potential (Zetasizer)
- Assay type: physicochemical
- STUDY CONDITIONS: cationic bis-urea compounds, 1000 mg/L; method names PBS pH 7.4 and DI water, table does not say which
# unit: mV | format: bare number

Looking for the measured Zeta Potential of `NCCCCNC(=O)Nc1ccc(CNC(=O)c2ccc(C(=O)NCc3ccc(NC(=O)NCCCCN)cc3)cc2)cc1` , can you help?
36.7

Which Zeta Potential value is on record for `C[N+](C)(C)CCCNC(=O)Nc1ccc(NC(=O)c2ccc(C(=O)Nc3ccc(NC(=O)NCCC[N+](C)(C)C)cc3)cc2)cc1.[I-].[I-]` ?
32.8

Give its Zeta Potential value. Item: `NCc1ccc(CNC(=O)Nc2ccc(CNC(=O)c3ccc(C(=O)NCc4ccc(NC(=O)NCc5ccc(CN)cc5)cc4)cc3)cc2)cc1`
45.1

Tell me the measured Zeta Potential of `C[N+](C)(C)CCCNC(=O)Nc1ccc(CNC(=O)c2ccc(C(=O)NCc3ccc(NC(=O)NCCC[N+](C)(C)C)cc3)cc2)cc1.[I-].[I-]` , please.
47.0

Data request, read-out Zeta Potential, for `NCCCCCCNC(=O)Nc1ccc(CNC(=O)c2ccc(C(=O)NCc3ccc(NC(=O)NCCCCCCN)cc3)cc2)cc1`
35.3

Find the recorded Zeta Potential belonging to `NCCNC(=O)Nc1ccc(CNC(=O)c2ccc(C(=O)NCc3ccc(NC(=O)NCCN)cc3)cc2)cc1` and report it.
32.2

###

- Test system: rat red blood cells
- ASSAY INFO: Hemolysis of rat red blood cells
- Format: cell-based
- STUDY CONDITIONS: one hour at 37° C.
Please go through the items and note down their HC50 (concentration that induces 50% hemolysis of rat red blood cells).

Any idea what HC50 (concentration that induces 50% hemolysis of rat red blood cells) was measured for `NCc1ccc(CNC(=O)Nc2ccc(CNC(=O)c3ccc(C(=O)NCc4ccc(NC(=O)NCc5ccc(CN)cc5)cc4)cc3)cc2)cc1` ?
>>1000 mg/L

I am curious: what HC50 (concentration that induces 50% hemolysis of rat red blood cells) value has been reported for `NCCNC(=O)Nc1ccc(CNC(=O)c2ccc(C(=O)NCc3ccc(NC(=O)NCCN)cc3)cc2)cc1` ?
>>1000 mg/L

Query: HC50 (concentration that induces 50% hemolysis of rat red blood cells); subject: `C[N+](C)(C)CCCNC(=O)Nc1ccc(NC(=O)c2ccc(C(=O)Nc3ccc(NC(=O)NCCC[N+](C)(C)C)cc3)cc2)cc1.[I-].[I-]`
>>2500 mg/L

Which HC50 (concentration that induces 50% hemolysis of rat red blood cells) is reported for this compound? `NCCCCCCNC(=O)Nc1ccc(CNC(=O)c2ccc(C(=O)NCc3ccc(NC(=O)NCCCCCCN)cc3)cc2)cc1`
>>1000 mg/L

Which HC50 (concentration that induces 50% hemolysis of rat red blood cells) value is on record for `NCCCCNC(=O)Nc1ccc(CNC(=O)c2ccc(C(=O)NCc3ccc(NC(=O)NCCCCN)cc3)cc2)cc1` ?
>>1000 mg/L

Returns the measured HC50 (concentration that induces 50% hemolysis of rat red blood cells) for the input compound. Input: `C[N+](C)(C)CCCNC(=O)Nc1ccc(CNC(=O)c2ccc(C(=O)NCc3ccc(NC(=O)NCCC[N+](C)(C)C)cc3)cc2)cc1.[I-].[I-]`
>>2500 mg/L
